tested on: SNB-19 CNS; assay: NCI-60 one-dose screen, 48 h (100 = growth as untreated, 0 = no growth, -100 = all killed); details: 10 µM unless noted
About 83,000 compounds went through this panel and 20% of them were active in at least one assay; those are over-represented in the sample as a whole.
test-readout: growth (%)
Could you give me the number in %? Just the number is fine.

Given item COc1cc(OC)c(/C=C/C(=O)c2ccc(Nc3ncnc4ccccc34)cc2)c(OC)c1 , the value recorded as its growth is 12.9

Memo: COc1ccccc1-c1c(-c2ccc(Cl)cc2)c2cc3c(cc2[nH]c1=O)OCCO3 , reported growth: 94.9

// recorded growth for CCCCCCN(C)Cc1ccc(OCCOc2ccc(CN(C)CCCCCC)cc2)cc1 : 27.9

Lab note: measured growth of COc1ccc(CC(C)=C(c2ccc(OCCN(C)C)cc2)c2ccc(OCCN(C)C)cc2)cc1 was 80.1

For record OC1(c2ccc(Cl)c(C(F)(F)F)c2)CCN(CCCC(c2ccc(F)cc2)c2ccc(F)cc2)CC1 the listed growth is 12.1

Record O=S(=O)(NCCCNc1nccc(-c2c(-c3cccc(O)c3)nc3occn23)n1)c1ccc(Br)cc1 , field growth: 118

Record O=c1[nH]nc(-c2ccc(Br)cc2)cc1Cc1ccc(O)cc1 , field growth: 81.2

C(=C\c1n(Cc2ccc3ccccc3c2)c(-c2ccccc2)c(-c2ccccc2)[n+]1Cc1ccc2ccccc2c1)/c1ccccc1 yielded growth of -93.7

Lab note: measured growth of CN1CCN(CCCOc2ccc3ncnc(Nc4ccc(Oc5cccc(C(F)(F)F)c5)c(Cl)c4)c3c2)CC1 was 41.7

Quick note, growth for CC1(C)NCCC[C@]2(C)[C@H]3CC=C4[C@@H]5C[C@@](C)(CO)CC[C@]5(C)CC[C@@]4(C)[C@]3(C)CC[C@@H]12 landed at 61.6

growth reported for this compound O=S(=O)(NCCCNc1nccc(-c2c(-c3ccccc3)nc3occn23)n1)c1ccc(Cl)cc1 : 97.8

The reported growth of the compound Cc1ccc2[nH]c(=O)cc(-n3nncc3COc3ccc(C=O)cc3)c2c1 was 102

The reported value for Cc1ccccc1CNc1ccc(N2CCOCC2)cc1 in terms of growth is 101

The compound identified as CCCc1cc2c(cc1Br)OCO2 registered its growth at 106

Data point: CCOc1cc(CNc2ccc(N3CCOCC3)c(C(=O)O)c2)ccc1OC ; growth = 94.6

growth in this record for COc1ccc(Nc2nc(N)nc3c2CCc2occc2-3)cc1 : 99.4

Lab note: measured growth of COc1cc(-c2cc(=O)oc3cc(O)ccc23)cc(OC)c1OC was 95.3

Entry COc1cc(NCCN(CC(C)C)C2CCCC2)c2ncccc2c1 ; growth = 97.6

# compound COc1cccc(CCC(=O)c2cc3c(N)c(C(=O)Nc4cccc(Cl)c4C)sc3nc2C)c1 ; its growth = 24.1

Reported growth for COc1ccc(/C(=C\c2ccccc2)C(=O)O)cc1OC was 95.7

Measured growth of O=C1C(=O)c2c(nc3ncccn23)-c2ccccc21 : -88

Notebook: COc1ccc(NS(=O)(=O)c2ccc(C)cc2)c([N+](=O)[O-])c1 , growth read as 102

# growth (compound: CCC(C)C(N)C(=O)NNc1n[nH]c(=S)n1N (configuration not stated) ) is 97.7

Form field growth, entry C#CC(=O)Nc1cccc2c1cc(C)n2-c1nc2c(c(NCc3ccccc3)n1)CCCC2 : -71.9

Form field growth, entry COc1cc(NCC(C)(O)CN(CC(C)C)CC(C)C)c2nc(C)ccc2c1 (configuration not stated) : 87.9

Measured growth of CC(Oc1ccc(C(=O)NS(=O)(=O)C(C)(C)C)cc1C(F)(F)F)c1ccc(Oc2ccccc2)cn1 (configuration not stated) : 63.8

growth recorded for this compound, COc1cc(C2NC(c3cc(OC)c(OC)c(OC)c3)C(C#N)(C#N)C2(C#N)C#N)cc(OC)c1OC (configuration not stated) , is 98.5

GET /value?item= COc1ccc(-n2cc(-c3cc(OC)c(OC)c(OC)c3)n(C(C)=O)c2=O)cc1 &field=growth returns 86.1

Record CN1CCCC1=Nc1ccccc1 , field growth: 107

Memo: c1ccc(C2CC(c3cccc(Nc4ccncc4)c3)=NN2c2ccccc2)cc1 (configuration not stated) , reported growth: 89.1

Memo: CC1=CC[C@@H]2CC[C@]3(C)[C@H](CC[C@@H]4[C@@]5(C)CCCNC(C)(C)[C@@H]5CC[C@]43C)[C@H]2[C@@H]1C , reported growth: 18.1

Lab book: growth of CCN(CC)CCCC(C)Nc1c2c(nc3ccc(OC)cc13)CCCC2 (configuration not stated) noted as 100
